# Test system: NCI-H226 lung
# Method Summary: NCI tumour cell line growth inhibition, 48 h
Measured Parameter: GI50

In the examples that follow, each entry is paired with its recorded GI50.
Nc1nc(SN=Nc2ccc(S(N)(=O)=O)cc2)c2[nH]cnc2n1: 0.867 µM
Cc1cc2c(cc1Cl)SC(=Nc1ccc(Cl)cc1)N(S(=O)(=O)c1ccccc1)S2(=O)=O: 11.5 µM
O=C(Nc1ccc(Br)cc1)c1ccc(Cl)c(Cl)c1: 2.86 µM

Now look at this one.
Exercise: Dear colleague, I am looking for the recorded GI50 of the following molecule: COc1cc2c3c(n(CCCN(C)C)c(=O)c2cc1OC)-c1ccccc1C3=O
Key: 18.6 µM

* * *

A collection of molecules and their measured TGI
# Tested on: A498 renal
# Method Summary: NCI tumour cell line growth inhibition, 48 h

In the examples that follow, each entry is paired with its recorded TGI.
CC(=O)c1ccc2c3c1[C@@H]1O[C@@H]1c1cccc(c1-3)[C@@H]1O[C@H]21: > 85.8 µM
O=C(Nc1ccc(-n2cc(-c3ccncc3)c(-c3ccc(Cl)c(O)c3)n2)cc1)Nc1ccc(Cl)c(C(F)(F)F)c1: 9.29 µM
CC(=O)O[C@H]1C#C/C=C\C#CC[C@@H]2C(=O)N[C@@H]12: 98.9 µM
O=C(CSc1nnc(Cc2ccccc2)o1)Nc1ccc([N+](=O)[O-])cc1: > 100 µM
Cc1c(C2=C(Br)C(=O)N(C)C2=O)c(=O)n(C)c(=O)n1C: 82.9 µM
CC1(CF)SCc2nc3ccccc3n21 (stereo not given): > 100 µM
COc1ccc(Nc2nc(NS(=O)(=O)c3cc(C)c(Cl)cc3S)n[nH]2)cc1: > 100 µM
O=c1[nH]/c(=C/c2ccc(OCc3ccccc3)cn2)c(=O)[nH]/c1=C/c1ccc(O)cc1: > 76.7 µM
O=c1[nH]nc(Cc2ccc([N+](=O)[O-])cc2)n1CCO: > 100 µM

Now look at this one.
Exercise: Dear colleague, I am looking for the recorded TGI of the following molecule: Cc1cc(C)cc(Nc2cc(=O)[nH]c(=O)[nH]2)c1
Key: > 100 µM

* * *

# Test system: HCT-15 colon
# Method Summary: NCI tumour cell line growth inhibition, 48 h; in the data active = GI50 below about 0.43 µM; inactive = the rest
Outcomes you can answer with include only these: active, inactive

Exercise: Test call, this molecule: CCn1c(CO)nn(-c2cc(O[C@@H](C)C(F)(F)F)c(C(=O)Nc3c(F)cccc3Cl)cc2F)c1=O
Key: active

Exercise: And for O=C(Nc1ccc(-n2cc(-c3ccncc3)c(-c3ccc(Cl)c(O)c3)n2)cc1)Nc1ccc(Cl)c(C(F)(F)F)c1 ?
Key: inactive

Exercise: And for COc1ccc2ncn(-c3cc(O[C@H](C)c4ccccc4Cl)c(C(N)=O)s3)c2c1 ?
Key: active

Exercise: And for CCc1ccccc1NC(=O)c1sc2nc3c(cc2c1N)C(=O)CCC3 ?
Key: active

Exercise: And for CN(CCCNC(=O)Cc1ccc2ccc3cccc4ccc1c2c34)CCCNc1cc(-c2ccc3ccccc3c2)nc2ccccc12 ?
Key: inactive

Exercise: And for COc1cc2ncn(-c3cc(OCCc4ccccc4)c(C(N)=O)s3)c2cc1OC ?
Key: inactive

Exercise: And for COc1ccc(-c2c[nH]c(=S)n2-c2ccc(OC)cc2)cc1 ?
Key: inactive
